Tested on: MPNST complex spheroid with HUVEC/MSC, growth, % test/control
run.description: Anticancer human tumor MPNST cell line growth inhibition [Asc];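 further: compounds left on spheroids for seven days before reading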
run.parameters: second compound 1 µM; first compound 1 µM; stronger effect = lower value
measured.property: viability, T/C

// below: answered molecules
1) COc1c(OCCCN2CCOCC2)ccc2c3n(c(=NC(=O)c4cnc(N)nc4)nc12)CCN3 + CNC(C)C(=O)NC1CN(S(=O)(=O)c2cccc(S(=O)(=O)N3CCC4CCC(C(=O)NC(c5ccccc5)c5ccccc5)N4C(=O)C(NC(=O)C(C)NC)C3)c2)CCC2CCC(C(=O)NC(c3ccccc3)c3ccccc3)N2C1=O; 5.66%
2) O=C(c1ccc(F)c(F)c1Nc1ccc(I)cc1F)N1CC(O)([C@@H]2CCCCN2)C1 + Cc1c(S(C)(=O)=O)c(-c2cc(F)cc(N3CCN(c4ccc(NS(=O)(=O)c5ccc(NC(CCN6CCC(C(=O)OCCCP(=O)(O)O)CC6)CSc6ccccc6)c(S(=O)(=O)C(F)(F)F)c5)cc4)CC3)c2)c(-c2ccc(Cl)cc2)n1C(C)C; 13.2%

INPUT: Fill blank: measured viability, T/C of the molecule C=CC(=O)N1CCN(c2nc(=O)n(-c3c(C)ccnc3C(C)C)c3nc(-c4c(O)cccc4F)c(F)cc23)C(C)C1 (stereo not drawn) + CNC(C)C(=O)NC1CN(S(=O)(=O)c2cccc(S(=O)(=O)N3CCC4CCC(C(=O)NC(c5ccccc5)c5ccccc5)N4C(=O)C(NC(=O)C(C)NC)C3)c2)CCC2CCC(C(=O)NC(c3ccccc3)c3ccccc3)N2C1=O is ____.
OUTPUT: 79%

* * *

System: MPNST complex spheroid with HUVEC/MSC, growth, % test/control
run.description: Anticancer human tumor MPNST cell line growth inhibition [Asc];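 further: compounds left on spheroids for seven days before reading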
run.parameters: curve of first compound; second compound 0.00316 µM
Description: Multicellular complex tumor spheroid response to apoptosis pathway targeting inhibitors Alrizomadlin, Pelcitoclax, and Dasminapant in combination with a variety of drugs and investigational agents in selected tumor cell lines […] Compounds. […] If the clinical Cmax for an agent had not been determined, the highest concentration tested was 10 microM. […]
measured.property: IC50

Solved cases (4 shown):
1) NC1CCC(NC2CC2c2ccccc2)CC1 (stereo not given) + CNC(C)C(=O)NC1CN(S(=O)(=O)c2cccc(S(=O)(=O)N3CCC4CCC(C(=O)NC(c5ccccc5)c5ccccc5)N4C(=O)C(NC(=O)C(C)NC)C3)c2)CCC2CCC(C(=O)NC(c3ccccc3)c3ccccc3)N2C1=O; > 100 nM
2) COc1c(OCCCN2CCOCC2)ccc2c3n(c(=NC(=O)c4cnc(N)nc4)nc12)CCN3 + CNC(C)C(=O)NC1CN(S(=O)(=O)c2cccc(S(=O)(=O)N3CCC4CCC(C(=O)NC(c5ccccc5)c5ccccc5)N4C(=O)C(NC(=O)C(C)NC)C3)c2)CCC2CCC(C(=O)NC(c3ccccc3)c3ccccc3)N2C1=O; 17.1 nM
3) NC(=O)C(=Cn1cnc(-c2cc(C(F)(F)F)cc(C(F)(F)F)c2)n1)c1cncnc1 + CNC(C)C(=O)NC1CN(S(=O)(=O)c2cccc(S(=O)(=O)N3CCC4CCC(C(=O)NC(c5ccccc5)c5ccccc5)N4C(=O)C(NC(=O)C(C)NC)C3)c2)CCC2CCC(C(=O)NC(c3ccccc3)c3ccccc3)N2C1=O; 11.6 nM
4) C=CC(=O)N1CCN(c2nc(=O)n(-c3c(C)ccnc3C(C)C)c3nc(-c4c(O)cccc4F)c(F)cc23)C(C)C1 (stereo not given) + CNC(C)C(=O)NC1CN(S(=O)(=O)c2cccc(S(=O)(=O)N3CCC4CCC(C(=O)NC(c5ccccc5)c5ccccc5)N4C(=O)C(NC(=O)C(C)NC)C3)c2)CCC2CCC(C(=O)NC(c3ccccc3)c3ccccc3)N2C1=O; > 10000 nM

INPUT: Provide the documented IC50 with MPNST complex spheroid with HUVEC/MSC, growth, % test/control as the system for C#Cc1c(F)ccc2cc(O)cc(-c3ncc4c(N5CC6CCC(C5)N6)nc(OCC56CCCN5CC(F)C6)nc4c3F)c12 (stereo not given) + CNC(C)C(=O)NC1CN(S(=O)(=O)c2cccc(S(=O)(=O)N3CCC4CCC(C(=O)NC(c5ccccc5)c5ccccc5)N4C(=O)C(NC(=O)C(C)NC)C3)c2)CCC2CCC(C(=O)NC(c3ccccc3)c3ccccc3)N2C1=O
OUTPUT: > 10000 nM
